- Measurement target: Gastrin receptor (Cavia porcellus, UniProt H0VZC5)
- Construct: The fundic mucosa is gently scraped off the submucosa
- Method: Gastrin receptor binding assay (displacement of 125I-(Leu-15)-Gastrin from guinea pig fundic glands)
- Test parameters: guinea pig fundic mucosa glands, 25° C., 30 min, read-out: In vitro Binding Data IC50 Gastrin
Property name: IC50

CC(C)C[C@H](NC(=O)[C@H]1Cc2c([nH]c3ccccc23)CN1C(=O)Nc1ccc2ccccc2c1)C(=O)N[C@@H](CC(=O)O)C(N)=O [Example 62]
1.2 µM
CC(C)C[C@H](NC(=O)[C@H]1Cc2c([nH]c3ccccc23)CN1C(=O)Nc1cccc(F)c1)C(=O)N[C@@H](CC(=O)O)C(N)=O [Example 65]
7.3 µM
CCOC(=O)c1ccccc1NC(=O)[C@H]1Cc2c([nH]c3ccccc23)CN1C(=O)OCc1ccccc1 [Example 17]
100 µM
CC(C)C[C@H](NC(=O)[C@H]1Cc2c([nH]c3ccccc23)CN1C(=O)Nc1cccc(C(F)(F)F)c1)C(=O)N[C@@H](CC(=O)O)C(N)=O [Example 63]
4.1 µM
CCOC(=O)c1ccccc1NC(=O)[C@@H]1Cc2c([nH]c3ccccc23)CN1C(=O)OCc1ccccc1 [Example 23]
> 300 µM
Cc1cccc(NC(=O)N2Cc3[nH]c4ccccc4c3C[C@@H]2C(=O)NCC(=O)N[C@@H](CC(=O)O)C(N)=O)c1 [Example 56]
> 30 µM
CC(C)C[C@H](NC(=O)[C@H]1Cc2c([nH]c3ccccc23)CN1C(=O)Nc1ccc(Cl)c(Cl)c1)C(=O)NCCC(=O)O [Example 27]
0.41 µM
O=C(Nc1ccccc1C(=O)N1CCCC1)[C@H]1Cc2c([nH]c3ccccc23)CN1C(=O)OCc1ccccc1 [Example 18]
55 µM

# input Report IC50, nothing else, for this molecule: CCCCCN(CCCCC)C(=O)[C@H]1Cc2c([nH]c3ccccc23)CN1C(=O)Nc1cccc(C)c1 [Example 13]
# output > 300 µM

# input Give the reported value of IC50 for this record: CC(C)C[C@H](NC(=O)[C@H]1Cc2c([nH]c3ccccc23)CN1)C(=O)N[C@@H](CC(=O)O)C(N)=O [Example 1]
# output 12 µM

# input Quote IC50 reported for Cc1cccc(NC(=O)N2Cc3[nH]c4ccccc4c3C[C@@H]2C(=O)N[C@H](CC(C)C)C(=O)N[C@H](CC(=O)O)C(N)=O)c1 [Example 45] please.
# output > 10 µM

# input Specify reported IC50 for the molecule shown: CC(C)C[C@H](NC(=O)[C@H]1Cc2c([nH]c3ccccc23)CN1C(=O)c1ccc2ccccc2c1)C(=O)N[C@@H](CC(=O)O)C(N)=O [Example 10]
# output 15 µM

====

- Measurement target: Gastrin receptor (Cavia porcellus, UniProt H0VZC5)
- Construct: The fundic mucosa is gently scraped off the submucosa
- Sequence (H0VZC5 1-426): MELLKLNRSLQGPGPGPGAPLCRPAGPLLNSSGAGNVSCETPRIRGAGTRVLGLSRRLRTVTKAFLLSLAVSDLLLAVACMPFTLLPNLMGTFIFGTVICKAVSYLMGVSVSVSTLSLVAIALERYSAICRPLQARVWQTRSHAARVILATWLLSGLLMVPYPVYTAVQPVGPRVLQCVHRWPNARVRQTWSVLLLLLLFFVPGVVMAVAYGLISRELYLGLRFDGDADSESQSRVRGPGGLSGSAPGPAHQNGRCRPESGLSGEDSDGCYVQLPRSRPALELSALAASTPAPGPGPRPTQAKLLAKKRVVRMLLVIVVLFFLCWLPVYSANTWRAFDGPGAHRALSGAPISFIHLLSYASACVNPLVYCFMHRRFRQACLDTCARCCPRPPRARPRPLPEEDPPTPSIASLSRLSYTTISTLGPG
- Method: Gastrin receptor binding assay (displacement of 125I-(Leu-15)-Gastrin from guinea pig fundic glands)
- Test parameters: guinea pig fundic mucosa glands, 25° C., 30 min, read-out: In vitro Binding Data IC50 Gastrin
# IC50 per record follows
Just the number please, in µM, no unit attached.

NC(=O)[C@H](CC(=O)O)NC(=O)[C@@H]1CCCN1C(=O)[C@H]1Cc2c([nH]c3ccccc23)CN1C(=O)Nc1ccc(Cl)c(Cl)c1
0.23
NC(=O)[C@H](CC(=O)O)NC(=O)[C@H]1Cc2c([nH]c3ccccc23)CN1C(=O)c1ccccc1
78
Cc1cccc(NC(=O)N2Cc3[nH]c4ccccc4c3C[C@@H]2C(=O)N[C@@H](COCc2ccccc2)C(=O)N[C@@H](CC(=O)O)C(N)=O)c1
5.3
CC(C)C[C@H](NC(=O)[C@H]1Cc2c([nH]c3ccccc23)CN1C(=O)Nc1ccc(Cl)c(Cl)c1)C(=O)N[C@@H](CC(=O)O)C(N)=O
0.54
COc1ccc(NC(=O)N2Cc3[nH]c4ccccc4c3C[C@@H]2C(=O)Nc2ccccc2C(=O)N2CCCC2)cc1
90

# input Output IC50 of CCOC(=O)c1ccc(NC(=O)[C@H]2Cc3c([nH]c4ccccc34)CN2C(=O)OCc2ccccc2)cc1
# output 10

# input Query IC50 for O=C(Nc1ccccc1C(=O)N1CCCC1)[C@@H]1Cc2c([nH]c3ccccc23)CN1C(=O)OCc1ccccc1
# output 8

# input Identify measured IC50 corresponding to Cc1cccc(NC(=O)N2Cc3[nH]c4ccccc4c3C[C@@H]2C(=O)N[C@@H](C)C(=O)N[C@@H](CC(=O)O)C(N)=O)c1
# output 18

# input Give a short answer stating reported IC50 for NC(=O)[C@H](CC(=O)O)NC(=O)C1(NC(=O)[C@H]2Cc3c([nH]c4ccccc34)CN2C(=O)Nc2ccc(Cl)c(Cl)c2)CCCC1 .
# output 1.3

# input Read the entry Cc1cccc(NC(=O)N2Cc3[nH]c4ccccc4c3C[C@@H]2C(=O)N[C@@H](CC(C)C)C(N)=O)c1 and write its reported IC50.
# output 0.23

# input Hello, please tell me recorded IC50 for this one: Cc1cccc(C(=O)N2Cc3[nH]c4ccccc4c3C[C@@H]2C(=O)N[C@@H](CC(C)C)C(=O)N[C@@H](CC(=O)O)C(N)=O)c1
# output 6.8

# input Identify the reported IC50 for the following entry. CC(C)C[C@@H](NC(=O)[C@@H]1Cc2c([nH]c3ccccc23)CN1C(=O)Nc1ccc(Cl)c(Cl)c1)C(=O)N[C@H](CC(=O)O)C(N)=O
# output 4

# input Return IC50 (reported value) for this molecule: Cc1cccc(NC(=O)N2Cc3[nH]c4ccccc4c3C[C@@H]2C(=O)N[C@@H](CC(C)C)C(=O)N[C@H](CC(=O)O)C(N)=O)c1
# output 17

# input Give me measured IC50, please, for this molecule: O=C(NCC(c1ccccc1)c1ccccc1)[C@H]1Cc2c([nH]c3ccccc23)CN1
# output 59

# input Identify IC50 associated with the molecule O=C(Nc1ccccc1C(=O)N1CCCC1)[C@H]1Cc2c([nH]c3ccccc23)CN1C(=O)c1ccc2ccccc2c1
# output 80

# input # return recorded IC50 for input CCCCCN(CCCCC)C(=O)[C@H](CC(=O)O)NC(=O)[C@H]1Cc2c([nH]c3ccccc23)CN1C(=O)Nc1cccc(C)c1
# output 2.6

====

- Measurement target: CCK-A receptor (Rattus norvegicus)
- Sequence (P30551 1-444): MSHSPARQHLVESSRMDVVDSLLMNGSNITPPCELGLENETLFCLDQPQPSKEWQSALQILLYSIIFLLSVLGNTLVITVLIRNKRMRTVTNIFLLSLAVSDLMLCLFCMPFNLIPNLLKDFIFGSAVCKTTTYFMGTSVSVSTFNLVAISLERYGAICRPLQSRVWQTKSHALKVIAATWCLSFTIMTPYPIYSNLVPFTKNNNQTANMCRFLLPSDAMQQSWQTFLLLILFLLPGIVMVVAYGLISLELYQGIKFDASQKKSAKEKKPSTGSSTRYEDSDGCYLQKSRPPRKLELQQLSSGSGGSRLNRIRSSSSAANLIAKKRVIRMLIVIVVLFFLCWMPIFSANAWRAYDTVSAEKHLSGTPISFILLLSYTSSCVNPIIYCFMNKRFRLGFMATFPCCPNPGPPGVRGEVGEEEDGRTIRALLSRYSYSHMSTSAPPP
pIC50: −log10 of the molar value.
Property name: pIC50

Below, 3 compounds whose answers are already recorded.
CC(C)C[C@H](NC(=O)[C@H]1Cc2c([nH]c3ccccc23)CN1C(=O)Nc1ccccc1)C(=O)N[C@@H](CC(=O)O)C(N)=O
< 4.00
CCOC(=O)c1cccc(NC(=O)[C@H]2Cc3c([nH]c4ccccc34)CN2C(=O)OCc2ccccc2)c1
4.60 to 5.00
O=C(NCC(c1ccccc1)c1ccccc1)[C@H]1Cc2c([nH]c3ccccc23)CN1
4.22 to 4.30

# input Give the measured pIC50 for CC(C)C[C@H](NC(=O)[C@H]1Cc2c([nH]c3ccccc23)CN1C(=O)Nc1ccc(Cl)cc1)C(=O)N[C@@H](CC(=O)O)C(N)=O
# output 4.32

# input Retrieve pIC50 measured for CC(C)C[C@H](NC(=O)[C@@H]1Cc2c([nH]c3ccccc23)CN1)C(=O)N[C@@H](CC(=O)O)C(N)=O and print it.
# output < 3.52

# input Provide one value: measured pIC50 of O=C(Nc1ccccc1C(=O)N1CCCC1)[C@H]1Cc2c([nH]c3ccccc23)CN1C(=O)c1ccc2ccccc2c1
# output < 4.52

# input Return the recorded pIC50 value; entry: Cc1cccc(NC(=O)N2Cc3[nH]c4ccccc4c3C[C@@H]2C(=O)N[C@@H](CC(C)C)C(N)=O)c1
# output < 4.00

# input Tell us which pIC50 value is on record for NC(=O)[C@H](CC(=O)O)NC(=O)[C@@H]1Cc2c([nH]c3ccccc23)CN1
# output < 3.52

Data origin: patent US5162336A
